system: KM12 colon; experiment: NCI-60 one-dose screen, 48 h; conditions: 10 µM unless noted
About 83,000 compounds went through this panel and 20% of them were active in at least one assay; those are over-represented in the sample as a whole. The source made the active and inactive calls. How the source made its calls: active means growth percent below 10; inactive means the rest.
A correct response names exactly one class from T for active, F for inactive

Use the examples below as a reference point.
C=C1C(=O)O[C@H]2[C@H]1CC/C(COC(=O)NCc1cn(C)c3ccccc13)=C\CC[C@@]1(C)O[C@@H]21 | F
Cc1[nH]c2ccccc2c1C1=CC(=O)C=CC1=O | F
COC(=O)c1ccc2c(c1)nc(-c1ccc(Cl)cc1)n2-c1cc(C(C)(C)C)[nH]n1 | F
C[Si](C)(C)C(c1ccccc1)c1ccccc1 | F
COc1ccc(-c2cc(-c3cc4ccccc4oc3=O)n(-c3ccccc3)n2)cc1 | F
O=C1NN(C(=O)c2ccccc2)C(c2ccc(Cl)c(Cl)c2)=C/C1=C\c1ccccc1[N+](=O)[O-] | T
N=C(N)c1ccc(-c2ccc(-c3cccs3)s2)cc1F | T
COc1ccccc1/C=C/C(=O)CCC(=O)O | F
CCc1onc(-c2ccc(OC)cc2)c1-c1ccccc1OCCN(CC)CC | F
Cn1cnc([N+](=O)[O-])c1S(=O)(=O)Oc1cccc2ccccc12 | F

I'd appreciate the recorded outcome for CCCCn1cnc2c(SCc3ccc([N+](=O)[O-])cc3)nc(N)nc21 from this test. F

I'd appreciate the recorded outcome for O=C(CC(=O)C(F)(F)C(F)(F)C(F)(F)F)c1cc2ccccc2o1 from this test. F

---

tested on: T-47D breast; assay: NCI-60 one-dose screen, 48 h; conditions: 10 µM unless noted
Compounds without any hit were thinned out: in the full panel of roughly 83,000, 20% have a hit. The source made the active and inactive calls. How the source made its calls: active means growth percent below 10; inactive means the rest.
A correct response names exactly one class from active, inactive

c1ccc(-c2nnn(-c3ccccc3)n2)cc1 | inactive

I'd appreciate the recorded outcome for c1coc(CNc2c3ccccc3nc3ccccc23)c1 from this test. inactive

I'd appreciate the recorded outcome for CCCNCCC(C)=O from this test. inactive

I'd appreciate the recorded outcome for COc1ccc2nc(-c3ccc(-c4noc(-c5ccc(Cl)cc5)n4)cc3)[nH]c2c1 from this test. inactive

I'd appreciate the recorded outcome for CCCCCc1c(C)[nH]c(/C=C2\N=C(c3ccc[nH]3)C=C2Oc2ccc(OC)cc2)c1C from this test. active

I'd appreciate the recorded outcome for O=C(c1ccc(OCCN2CCCCC2)cc1)c1c(-c2ccc(O)cc2)sc2cc(O)ccc12 from this test. inactive

I'd appreciate the recorded outcome for COc1ncnc2[nH]cc(CN3CCN(c4ccc(F)cc4)CC3)c12 from this test. inactive

I'd appreciate the recorded outcome for CCOC(=O)c1cc(N)nc2ccccc12 from this test. inactive

I'd appreciate the recorded outcome for CC(CN1CCN(CC(C)Nc2ccnc3cc(Cl)ccc23)CC1)Nc1ccnc2cc(Cl)ccc12 (configuration not stated) from this test. active

I'd appreciate the recorded outcome for CC1CCCN(CCCCOc2ccc(-c3ccc(C#N)cc3)cc2)C1 (configuration not stated) from this test. inactive

I'd appreciate the recorded outcome for CCCCSc1ncnc2c1ncn2C1CCCCO1 (configuration not stated) from this test. inactive

I'd appreciate the recorded outcome for Nc1c(N)c2ccccc2c2ccccc12 from this test. inactive

I'd appreciate the recorded outcome for N=c1nc(N2CCCCC2)cc(N)n1O from this test. inactive

---

tested on: SNB-75 CNS; test: NCI-60 one-dose screen, 48 h (100 = growth as untreated, 0 = no growth, -100 = all killed); details: 10 µM unless noted
This is part of a sample that, as a whole, favours compounds with a hit. Of some 83,000 tested, about 20% had one in any assay. Active and inactive are the calls of the source. The calls were made as follows: active = growth percent below 10; inactive = the rest.
Here the recorded growth is given for each entry.

O=[N+]([O-])c1ccc(N/N=C/c2ccccc2O)nc1 | 52.9% (inactive)
Cn1cnc([N+](=O)[O-])c1S(=O)(=O)Oc1cccc2ccccc12 | 83.2% (inactive)
CC(=O)Nc1c(Br)cc2c(c1Br)Cc1cc(Br)ccc1-2 | 74.3% (inactive)

Alright, here's another molecule for you.
Form field: reported growth of C=C(C)[C@@H]1CC[C@]2(C(=O)O)CC[C@]3(C)[C@H](CC[C@@H]4[C@@]5(C)C[C@@H](CC#Cc6ccc(C(C)=O)s6)[C@H](O)C(C)(C)[C@@H]5CC[C@]43C)[C@@H]12 71.1% (inactive)

---

test system: MDA-MB-231 breast; test: NCI-60 one-dose screen, 48 h (100 = growth as untreated, 0 = no growth, -100 = all killed); settings: 10 µM unless noted
Compounds without any hit were thinned out: in the full panel of roughly 83,000, 20% have a hit. Active and inactive are the calls of the source. Rule for the calls: active = growth percent below 10; inactive = the rest.
attributeMeasured: growth

O=C1NN(C(=O)c2ccccc2)C(c2ccc(Cl)c(Cl)c2)=C/C1=C\c1ccccc1[N+](=O)[O-] | 49.9% [6.75 µM] (inactive)
N#CCCn1cnc2c(N)ncnc21 | 94.2% (inactive)
Cc1c(C(=O)Nc2ccccc2F)sc2c(=O)[nH]cnc12 | 86.2% (inactive)
COc1ccc(CNc2c3ccccc3nc3ccccc23)cc1F | 29.2% (inactive)
Cc1ccc(C)c(NC(=O)c2sc3c(=O)[nH]cnc3c2C)c1 | 97.4% (inactive)
COc1cc2ncnc(Nc3ccc(S(=O)(=O)Nc4nccs4)cc3)c2cc1OCCCN1CCOCC1 | 99.2% (inactive)

Write down the reported growth of COc1ccc(/C(C)=N/NC(=O)c2ccc(S(C)(=O)=O)cc2)cc1OC , test system: MDA-MB-231 breast. 103% (inactive)

Write down the reported growth of S=C(S)Oc1cccc2cccnc12 , test system: MDA-MB-231 breast. 111% (inactive)

Write down the reported growth of CC(=O)Oc1ccccc1C(=O)Nc1ncc([N+](=O)[O-])s1 , test system: MDA-MB-231 breast. 26.9% (inactive)

Write down the reported growth of O=[N+]([O-])c1ccc(SSc2ccc([N+](=O)[O-])cc2Cl)c(Cl)c1 , test system: MDA-MB-231 breast. 78.2% (inactive)

Write down the reported growth of O=C1/C(=C/c2ccccc2)SC(=Nc2ccccc2)N1Nc1ccccc1 , test system: MDA-MB-231 breast. 12.1% (inactive)

---

test system: SK-MEL-28 melanoma; assay: NCI-60 one-dose screen, 48 h (100 = growth as untreated, 0 = no growth, -100 = all killed); conditions: 10 µM unless noted
Compounds without any hit were thinned out: in the full panel of roughly 83,000, 20% have a hit. Active and inactive are the calls of the source. The calls were made as follows: active = growth percent below 10; inactive = the rest.
attributeMeasured: growth

Answered examples (3):
Fc1cc(-c2cnc3nonc3n2)c(Cl)cc1Cl | 91.8% (inactive)
COc1cc(NCC(O)CN(CC(C)C)CC(C)C)c2ncccc2c1 (stereo unspecified) | 75.3% (inactive)
CCOC(=O)C1OC2(CCCC2)OC1C(=O)OCC (stereo unspecified) | 122% (inactive)

Form field: reported growth of O=C(/C=C/c1ccccc1Br)c1cccc(OCCCCOc2cccc(C(=O)/C=C/c3ccccc3Br)c2)c1 102% (inactive)

Form field: reported growth of O=C(CSc1nc2c(n1Nc1ccccc1)-c1ccccc1SC2)Nc1nccs1 112% (inactive)

Form field: reported growth of O=C(CC(=O)C(F)(F)C(F)(F)C(F)(F)F)c1cc2ccccc2o1 105% (inactive)

---

system: HOP-62 NSCLC; test: NCI-60 one-dose screen, 48 h (100 = growth as untreated, 0 = no growth, -100 = all killed); settings: 10 µM unless noted
About 83,000 compounds went through this panel and 20% of them were active in at least one assay; those are over-represented in the sample as a whole.
attributeMeasured: growth (%)
Answer in %, number only, no unit symbol.

O=C(c1ccccc1)C1OC1C(=O)c1ccccc1 (centres undefined) | 21
O=C1SCN(Cc2ccccc2)CN1Cc1ccccc1 | 102
COc1cnc2c(c1)C(=O)c1c-2n(CCCN2CCNCC2)c(=O)c2cc(Cl)ccc12 | -24.4
CCN(C(=O)CCl)C(C)(C)C(SSSC(c1ccc(Cl)cc1)C(C)(C)N(CC)C(=O)CCl)c1ccc(Cl)cc1 (centres undefined) | 86.6

Alright, here's another molecule for you.
Form field: reported growth of COc1cc(/C=C2\CN(C(=O)OC(C)(C)C)C/C(=C\c3ccc(O)c(OC)c3)C2=O)ccc1O 98

---

tested on: LOX IMVI melanoma; assay: NCI-60 one-dose screen, 48 h (100 = growth as untreated, 0 = no growth, -100 = all killed); conditions: 10 µM unless noted
This is part of a sample that, as a whole, favours compounds with a hit. Of some 83,000 tested, about 20% had one in any assay. The source made the active and inactive calls. How the source made its calls: active means growth percent below 10; inactive means the rest.
Here the recorded growth is given for each entry.

Answered examples (2):
COc1ccc(-c2cc(-c3cc4ccccc4oc3=O)n(-c3ccccc3)n2)cc1 | 59.8% (inactive)
O=C1N(Cc2ccccc2Cl)c2ccccc2C12NN=C(c1ccccc1)S2 (centres undefined) | 42.3% (inactive)

Form field: reported growth of CCCCCCCCCCCCCCCCCC(=O)[O][Sn]([CH2]CCC)([CH2]CCC)[CH2]CCC -92.7% (active)

Form field: reported growth of CS(=O)(=O)c1ccc(C(=O)N2N=C(c3ccccc3)CC2c2ccc3c(c2)OCO3)cc1 (centres undefined) 95.5% (inactive)

Form field: reported growth of O=c1c2cc(Br)cc(Br)c2nc(-c2ccc(Cl)cc2)n1/N=C\c1ccccc1F 70.3% (inactive)

Form field: reported growth of CCOC(=O)C#Cc1c(C(=O)OCC)nnn1[C@@H]1O[C@H](COC(C)=O)[C@@H](OC(C)=O)[C@H]1OC(C)=O 85.8% (inactive)

Form field: reported growth of O=S(=O)(Cc1ccc(Cl)cc1Cl)c1ccc(Cl)cc1 15.7% (inactive)

Form field: reported growth of COc1ccccc1CNCCCN1C(=O)c2ccc3c4c(ccc(c24)C1=O)C(=O)N(CCCOCCCCOCCCN)C3=O -34.3% (active)

Form field: reported growth of O=C(NCCN1CCCC1)n1cc(-c2ccncc2)c(-c2cc(O)cc(Cl)c2)n1 79.7% (inactive)
